procedure.summary: in vitro
Assay type: cell-based
run.conditions: human, HepG2 cells; HepG2, 300 µM, 24 h, MTT; read-out: In vitro toxicity (% cell viability)
property.label: viability at 24 h, 300 µM (%)
Expressed in %, but write only the number.

Identify measured viability at 24 h, 300 µM corresponding to O=c1c2c(nc3n1CCCC3)Oc1ccc3ccccc3c1C2c1ccccc1 (stereo not shown) [3Ab]
110

Identify measured viability at 24 h, 300 µM corresponding to COc1cccc(C2c3c(nc4n(c3=O)CCCC4)Oc3ccc4ccccc4c32)c1 (stereo not shown) [3Bb]
118

Identify measured viability at 24 h, 300 µM corresponding to COc1cccc(C2c3c(nc4n(c3=O)CCC4)Oc3ccc4ccccc4c32)c1 (stereo not shown) [3Ba]
108

Proceed to the following item.
Identify measured viability at 24 h, 300 µM corresponding to Cc1ccc(C2c3c(nc4n(c3=O)CCCC4)Oc3ccc4ccccc4c32)cc1 (stereo not shown) [3Cb]
113

* * *

Quick reference: pIC50 of the listed items.
measured.on: Electrophorus electricus AChE (EeAChE) (Electrophorus electricus, UniProt O42275)
Construct: purified AChE from Electrophorus electricus (Type V-S, Sigma-Aldrich); purchased Sigma-Aldrich Type V-S
Sequence (O42275 24-633): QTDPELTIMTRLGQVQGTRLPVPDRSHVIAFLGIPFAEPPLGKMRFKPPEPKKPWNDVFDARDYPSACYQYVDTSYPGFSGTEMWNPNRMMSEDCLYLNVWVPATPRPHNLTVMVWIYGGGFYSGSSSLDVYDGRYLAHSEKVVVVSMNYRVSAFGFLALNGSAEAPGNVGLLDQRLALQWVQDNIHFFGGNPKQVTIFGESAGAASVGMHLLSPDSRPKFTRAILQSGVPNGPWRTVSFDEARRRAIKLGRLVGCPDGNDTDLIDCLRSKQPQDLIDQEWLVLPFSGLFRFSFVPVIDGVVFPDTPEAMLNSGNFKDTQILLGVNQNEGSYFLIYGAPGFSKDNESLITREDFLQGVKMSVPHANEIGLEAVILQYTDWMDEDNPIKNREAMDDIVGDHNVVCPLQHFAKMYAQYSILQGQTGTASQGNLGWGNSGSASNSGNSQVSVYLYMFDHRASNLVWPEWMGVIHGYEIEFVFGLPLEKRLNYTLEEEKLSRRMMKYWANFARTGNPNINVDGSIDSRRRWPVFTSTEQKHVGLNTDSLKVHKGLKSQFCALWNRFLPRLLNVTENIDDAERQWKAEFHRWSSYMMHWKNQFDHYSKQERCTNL
procedure.summary: Inhibition of EeAChE (Ellman's assay)
Assay type: biochemical
run.conditions: mean ± SEM, at least three independent experiments
Lab note: report pIC50 as minus log10 of the concentration in molar units, number only.

Identify measured pIC50 corresponding to O=c1c2c(nc3n1CCCCC3)Oc1c(ccc3ccccc13)C2c1ccccc1 (stereo not drawn)
6.54

---
Identify measured pIC50 corresponding to Cc1ccc(C2c3ccc4ccccc4c3Oc3nc4n(c(=O)c32)CCC4)cc1 (stereo not drawn)
6.94

Identify measured pIC50 corresponding to O=c1c2c(nc3n1CCCC3)Oc1c(ccc3ccccc13)C2c1ccccc1 (stereo not drawn)
6.42

Identify measured pIC50 corresponding to Cc1ccc(C2c3ccc4ccccc4c3Oc3nc4n(c(=O)c32)CCCC4)cc1 (stereo not drawn)
6.71

Identify measured pIC50 corresponding to Cc1ccc(C2c3c(nc4n(c3=O)CCCC4)Oc3ccc4ccccc4c32)cc1 (stereo not drawn)
7.25

Identify measured pIC50 corresponding to O=c1c2c(nc3n1CCCC3)Oc1ccc3ccccc3c1C2c1ccccc1 (stereo not drawn)
7.26

Identify measured pIC50 corresponding to COc1cccc(C2c3ccc4ccccc4c3Oc3nc4n(c(=O)c32)CCCC4)c1 (stereo not drawn)
6.81

Identify measured pIC50 corresponding to O=c1c2c(nc3n1CCCCC3)Oc1ccc3ccccc3c1C2c1ccccc1 (stereo not drawn)
6.52

Identify measured pIC50 corresponding to COc1cccc(C2c3c(nc4n(c3=O)CCC4)Oc3ccc4ccccc4c32)c1 (stereo not drawn)
7.22

* * *

Quick reference: inhibition at 10 µM of the listed items.
measured.on: horse serum BuChE (eqBuChE) (Equus caballus)
Construct: BuChE from horse serum (lyophilized powder, Sigma-Aldrich); purchased Sigma-Aldrich; host or cells: horse serum
Sequence (P81908 whole entry): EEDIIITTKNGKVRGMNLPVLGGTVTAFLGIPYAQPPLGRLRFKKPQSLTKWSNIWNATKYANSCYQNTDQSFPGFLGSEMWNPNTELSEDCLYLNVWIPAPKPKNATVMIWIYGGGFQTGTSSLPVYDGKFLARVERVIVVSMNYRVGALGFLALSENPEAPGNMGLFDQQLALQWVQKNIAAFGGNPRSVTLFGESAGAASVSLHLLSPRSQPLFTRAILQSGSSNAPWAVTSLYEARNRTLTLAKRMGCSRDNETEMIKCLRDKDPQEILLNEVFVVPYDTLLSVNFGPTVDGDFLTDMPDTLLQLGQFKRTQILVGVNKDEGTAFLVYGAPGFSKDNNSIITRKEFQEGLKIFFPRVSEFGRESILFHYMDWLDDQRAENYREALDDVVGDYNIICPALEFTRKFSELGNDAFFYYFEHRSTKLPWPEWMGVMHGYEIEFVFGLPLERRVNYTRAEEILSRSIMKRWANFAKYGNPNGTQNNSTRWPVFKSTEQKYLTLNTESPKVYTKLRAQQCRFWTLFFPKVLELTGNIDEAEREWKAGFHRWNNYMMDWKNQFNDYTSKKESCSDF
procedure.summary: Inhibition of eqBuChE (Ellman's assay)
Assay type: biochemical
run.conditions: 10 µM compound
Expressed in %, but write only the number.

Completed entries (count: 5):
# return inhibition at 10 µM of COc1cccc(C2c3c(nc4n(c3=O)CCC4)Oc3ccc4ccccc4c32)c1 (stereo not drawn) (system: horse serum BuChE (eqBuChE) (Equus caballus))
51

# return inhibition at 10 µM of O=c1c2c(nc3n1CCCC3)Oc1c(ccc3ccccc13)C2c1ccccc1 (stereo not drawn) (system: horse serum BuChE (eqBuChE) (Equus caballus))
54.6

# return inhibition at 10 µM of O=c1c2c(nc3n1CCC3)Oc1ccc3ccccc3c1C2c1ccccc1 (stereo not drawn) (system: horse serum BuChE (eqBuChE) (Equus caballus))
12.1

# return inhibition at 10 µM of COc1cccc(C2c3c(nc4n(c3=O)CCCC4)Oc3ccc4ccccc4c32)c1 (stereo not drawn) (system: horse serum BuChE (eqBuChE) (Equus caballus))
43

# return inhibition at 10 µM of O=c1c2c(nc3n1CCCCC3)Oc1c(ccc3ccccc13)C2c1ccccc1 (stereo not drawn) (system: horse serum BuChE (eqBuChE) (Equus caballus))
24.2

---
# return inhibition at 10 µM of Cc1ccc(C2c3c(nc4n(c3=O)CCC4)Oc3ccc4ccccc4c32)cc1 (stereo not drawn) (system: horse serum BuChE (eqBuChE) (Equus caballus))
17.4

# return inhibition at 10 µM of COc1cccc(C2c3ccc4ccccc4c3Oc3nc4n(c(=O)c32)CCC4)c1 (stereo not drawn) (system: horse serum BuChE (eqBuChE) (Equus caballus))
38

# return inhibition at 10 µM of COc1cccc(C2c3ccc4ccccc4c3Oc3nc4n(c(=O)c32)CCCCC4)c1 (stereo not drawn) (system: horse serum BuChE (eqBuChE) (Equus caballus))
31.1

# return inhibition at 10 µM of O=c1c2c(nc3n1CCCC3)Oc1ccc3ccccc3c1C2c1ccccc1 (stereo not drawn) (system: horse serum BuChE (eqBuChE) (Equus caballus))
31.2
